Reported MIC90 values for the following molecules.
Tested on: Staphylococcus epidermidis
Procedure summary: Antimicrobial activity against methicillin-resistant Staphylococcus epidermidis by broth microdilution method
Format: functional

| Molecule | Unit spec | Comparison operator | MIC90 |
| --- | --- | --- | --- |
| c1cc2cc(-c3ccc(-c4cc5ccc(C6=NCCCN6)cc5[nH]4)cc3)[nH]c2cc1C1=NCCCN1 | mg/L | = | 0.06 |
| C[C@@H](O)[C@H]1C(=O)N2C(C(=O)O)=C(SCCNC=N)C[C@H]12 [IMIPENEM ANHYDROUS] | mg/L | > | 8 |
| CN[C@H](CC(C)C)C(=O)N[C@H]1C(=O)N[C@@H](CC(N)=O)C(=O)N[C@H]2C(=O)N[C@H]3C(=O)N[C@H](C(=O)N[C@H](C(=O)O)c4cc(O)cc(O)c4-c4cc3ccc4O)[C@H](O)c3ccc(c(Cl)c3)Oc3cc2cc(c3O[C@@H]2O[C@H](CO)[C@@H](O)[C@H](O)[C@H]2O[C@H]2C[C@](C)(N)[C@H](O)[C@H](C)O2)Oc2ccc(cc2Cl)[C@H]1O | mg/L | = | 2 |
| CCCCCCCCCC(=O)N[C@@H](Cc1c[nH]c2ccccc12)C(=O)N[C@H](CC(N)=O)C(=O)N[C@@H](CC(=O)O)C(=O)N[C@@H]1C(=O)NCC(=O)N[C@@H](CCCN)C(=O)N[C@@H](CC(=O)O)C(=O)N[C@H](C)C(=O)N[C@@H](CC(=O)O)C(=O)NCC(=O)N[C@H](CO)C(=O)N[C@@H]([C@H](C)CC(=O)O)C(=O)N[C@@H](CC(=O)c2ccccc2N)C(=O)O[C@@H]1C | mg/L | = | 1 |
| CC(=O)NC[C@H]1CN(c2ccc(N3CCOCC3)c(F)c2)C(=O)O1 | mg/L | = | 2 |
| c1cc2cc(-c3ccc(-c4cc5ccc(C6=NCCN6)cc5[nH]4)cc3)[nH]c2cc1C1=NCCN1 | mg/L | = | 0.03 |
